# Test system: A-549
# test-protocol: SRB cytotoxicity assay, A-549 (2nd panel)
# Format: cell-based, human
# measurement-context: IC50 normal cell line HDF/IC50 A-549
Reported selectivity index SIHDF (A-549) by item:
Give the figure only, with no unit attached.

Example entries and their recorded answers appear below.
Dear colleague, please send me the reported selectivity index SIHDF (A-549) for C=CC[N+]12CCC(CC1)C(NC1=C3C[C@@H](C)C[C@H](OC)[C@H](O)[C@@H](C)/C=C(\C)[C@H](OC(N)=O)[C@@H](OC)/C=C\C=C(/C)C(=O)NC(=CC1=O)C3=O)C2 (stereo partly shown) [Compound 9] when you can.
1.71

Dear colleague, please send me the reported selectivity index SIHDF (A-549) for C/C=C/C[N+]12CCC(CC1)C(NC1=C3C[C@@H](C)C[C@H](OC)[C@H](O)[C@@H](C)/C=C(\C)[C@H](OC(N)=O)[C@@H](OC)/C=C\C=C(/C)C(=O)NC(=CC1=O)C3=O)C2 (stereo partly shown) [Compound 10] when you can.
2.29

Dear colleague, please send me the reported selectivity index SIHDF (A-549) for COC1=C2C[C@@H](C)C[C@H](OC)[C@H](O)[C@@H](C)/C=C(\C)[C@H](OC(N)=O)[C@@H](OC)/C=C\C=C(/C)C(=O)NC(=CC1=O)C2=O [GDM, Geldanamycin] when you can.
2.15

Continuing:
Dear colleague, please send me the reported selectivity index SIHDF (A-549) for CO[C@H]1/C=C\C=C(/C)C(=O)NC2=CC(=O)C(NC3C[N+]4(Cc5ccsc5Br)CCC3CC4)=C(C[C@@H](C)C[C@H](OC)[C@H](O)[C@@H](C)/C=C(\C)[C@@H]1OC(N)=O)C2=O (stereo partly shown) [Compound 12] when you can.
1.56

Dear colleague, please send me the reported selectivity index SIHDF (A-549) for CO[C@H]1/C=C\C=C(/C)C(=O)NC2=CC(=O)C(NC3C[N+]4(Cc5ccc([N+](=O)[O-])o5)CCC3CC4)=C(C[C@@H](C)C[C@H](OC)[C@H](O)[C@@H](C)/C=C(\C)[C@@H]1OC(N)=O)C2=O (stereo partly shown) [Compound 11] when you can.
1.16

Dear colleague, please send me the reported selectivity index SIHDF (A-549) for CO[C@H]1/C=C\C=C(/C)C(=O)NC2=CC(=O)C(NC3C[N+]4(C/C=C/c5ccccc5)CCC3CC4)=C(C[C@@H](C)C[C@H](OC)[C@H](O)[C@@H](C)/C=C(\C)[C@@H]1OC(N)=O)C2=O (stereo partly shown) [Compound 13] when you can.
1.85

Dear colleague, please send me the reported selectivity index SIHDF (A-549) for CO[C@H]1/C=C\C=C(/C)C(=O)NC2=CC(=O)C(NC3CCC3)=C(C[C@@H](C)C[C@H](OC)[C@H](O)[C@@H](C)/C=C(\C)[C@@H]1OC(N)=O)C2=O [Compound 1] when you can.
3.33
